STUDY SYSTEM: Histone-lysine N-methyltransferase EHMT2 (Homo sapiens) (UniProt Q96KQ7)
Sequence (Q96KQ7 913-1193 limits assumed): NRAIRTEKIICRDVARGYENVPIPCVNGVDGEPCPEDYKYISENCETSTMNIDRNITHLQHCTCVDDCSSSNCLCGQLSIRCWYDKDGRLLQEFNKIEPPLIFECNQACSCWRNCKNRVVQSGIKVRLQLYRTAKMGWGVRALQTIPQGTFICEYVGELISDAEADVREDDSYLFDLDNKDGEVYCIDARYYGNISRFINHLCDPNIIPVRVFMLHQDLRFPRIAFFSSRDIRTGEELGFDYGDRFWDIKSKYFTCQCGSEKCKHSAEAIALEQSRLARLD
PROCEDURE SUMMARY: qHTS Assay for Inhibitors of Histone Lysine Methyltransferase G9a; further: nearly all actives have a fitted effect of over 75% in size
REPORTED CONDITIONS: G9a H3K9 monomethylation, AlphaScreen, 2 h; series mostly up to 59 µM
Protocol: Methylated lysines, on the N-terminal tails of histone proteins serve as epigenetic markers to recruit factors that can then modify local chromatin structure to lead to functional consequences. […] Methylation of biotinylated-histone peptide is measured through specific antibody-based detection, in conjunction with streptavidin-coated donor and anti-IgG antibody-coated acceptor beads. […]
Screen size: about 350,000 compounds; about 31,000 (8.9%) were called active. About 15% were inconclusive and are not listed. The call rests on the fitted dose curve; in most records, active means well fitted inhibition curve with a large enough effect; inconclusive means small, poorly fitted or top-dose-only effect; inactive means no such curve, though single readings can be large or run the other way. The full list was thinned out, with actives kept by preference.
Parameter call: string, one of active, inactive

[[record]]
molecule = "Cc1cccnc1NC(=O)CSc1nnc(COc2ccc(C(C)C)cc2)n1C"
cat = "inactive"

[[record]]
molecule = "Cc1cc(-c2n[nH]c(=S)n2/N=C/C(Br)=C/c2ccccc2)n[nH]1"
cat = "active"

[[record]]
molecule = "CCN(CC)S(=O)(=O)c1ccc2c(c1)N(CC(=O)NCC(C)c1ccccc1)C(=O)CO2 (stereo not given)"
cat = "inactive"

[[record]]
molecule = "COc1ccc(N2CCN(c3ccc([N+](=O)[O-])cc3Cl)CC2)cc1"
cat = "active"

[[record]]
molecule = "O=C(N/N=C\\c1cccnc1)c1cc(-c2ccccc2)nc2c(Cl)cccc12"
cat = "inactive"

[[record]]
molecule = "O=C(c1cncc(Br)c1)N1CCN(c2ccc([N+](=O)[O-])cc2)CC1"
cat = "inactive"

[[record]]
molecule = "Cc1ccc(Cn2cc(CCC(=O)NCc3ccc(OC(C)C)cc3)c3ccccc32)cc1"
cat = "inactive"

[[record]]
molecule = "Cc1cc(C)cc(NS(=O)(=O)c2ccc(-c3cc(C)no3)s2)c1"
cat = "inactive"


How was COc1ccc(-c2nnc(SCC(=O)Nc3cccnc3Cl)n2C)cc1 classified in this test?
active

How was CC1CCCCC1NC(=O)COC(=O)Cc1ccc(Cl)cc1 (stereo not given) classified in this test?
inactive

---

STUDY SYSTEM: Histone-lysine N-methyltransferase EHMT2 (Homo sapiens)
PROCEDURE SUMMARY: qHTS Assay for Inhibitors of Histone Lysine Methyltransferase G9a; further: nearly all actives have a fitted effect of over 75% in size; on activity, negative = inhibition: on the % scale 0 is the no-effect control and ±100 the full control effect
REPORTED CONDITIONS: G9a H3K9 monomethylation, AlphaScreen, 2 h; series mostly up to 59 µM
Experimental: Methylated lysines, on the N-terminal tails of histone proteins serve as epigenetic markers to recruit factors that can then modify local chromatin structure to lead to functional consequences. […] Methylation of biotinylated-histone peptide is measured through specific antibody-based detection, in conjunction with streptavidin-coated donor and anti-IgG antibody-coated acceptor beads. […]
The whole screen tested about 350,000 compounds, of which about 31,000 (8.9%) were called active. Another 15% or so got no clear call; they are omitted. The list comes from a sample in which actives are over-represented; it also holds close analogues and randomly drawn compounds.
MEASUREMENT KIND: activity, negative = inhibition

Some compounds with known activity, negative = inhibition results, for comparison:
[[record]]
compound = "COc1cc(F)c(C2=CC(=O)CC(C)(C)C2)cc1F"
reported = "-4.97% [at 0.501 µM] (inactive)"

[[record]]
compound = "O=C(NCc1cccc(Cl)c1)C1=CC=CN2CCS(=O)(=O)N=C12"
reported = "-59.1% [at 12.7 µM] (inactive)"

[[record]]
compound = "COc1ccc(OCCCC(=O)OC(C)C(=O)Nc2ccccc2[N+](=O)[O-])cc1 (stereo not given)"
reported = "-1.74% [at 2.33 µM] (inactive)"

[[record]]
compound = "Cc1nc2cnc(Nc3ccccc3)nc2n(C[C@H]2CCCO2)c1=O"
reported = "8.09% [at 0.501 µM] (inactive)"

[[record]]
compound = "COc1ccccc1/C=N/N1CCN(Cc2ccccc2Cl)CC1"
reported = "7.68% [at 0.501 µM] (inactive)"

[[record]]
compound = "CN(C)C1=NC[C@H](Cc2ccccc2)N1CCc1ccc(F)cc1"
reported = "16.6% [at 2.33 µM] (inactive)"

[[record]]
compound = "Cc1cc(C)cc(OCC(=O)OCC(=O)NC2CCCC2)c1"
reported = "-28.2% [at 2.33 µM] (inactive)"

[[record]]
compound = "CCCc1cc(=O)oc2c(C)c(OCC(=O)Nc3ccccn3)ccc12"
reported = "-3.15% [at 0.0925 µM] (inactive)"


Fill blank: measured activity, negative = inhibition of the compound CC(=O)c1c(C)[nH]c(C(=O)CN2C(=O)NC(C)(C)C2=O)c1C is ____.
3.15% [at 0.501 µM] (inactive)

Fill blank: measured activity, negative = inhibition of the compound CC(C)(C)N1C(=O)[C@H]2[C@@H](c3ccc(Br)cc3)N3C(=O)N(c4cccc(Cl)c4)C(=O)[C@@]3(C)[C@H]2C1=O is ____.
-8.49% [at 2.33 µM] (inactive)
